Molecular target: T1, Plasmodium falciparum histidine-rich protein II (HRP-II) (Plasmodium falciparum, UniProt P05227 22-332)
T1 construct: Coating antigen of all ELISAs; also called HRP-II protein; MA-HRPII Ag protein
T1 sequence (looked up): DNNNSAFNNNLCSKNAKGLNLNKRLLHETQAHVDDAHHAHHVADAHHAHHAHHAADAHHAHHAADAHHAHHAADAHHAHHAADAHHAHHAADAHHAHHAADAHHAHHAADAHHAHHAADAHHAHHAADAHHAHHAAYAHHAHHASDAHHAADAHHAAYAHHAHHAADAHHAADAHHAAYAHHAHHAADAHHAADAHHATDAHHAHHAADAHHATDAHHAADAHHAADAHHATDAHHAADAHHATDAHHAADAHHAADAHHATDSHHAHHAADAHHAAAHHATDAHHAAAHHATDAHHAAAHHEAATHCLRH
Assay: indirect ELISA, coated MA-HRPII Ag 1 ug/ml, antibody 200 ng/ml
Assignment: determine reported OD value at 450 nm (ref 630 nm) for the given binders.
Please answer in the form of a number followed by its unit of measurement.

Endpoint output: OD value at 450 nm (ref 630 nm) of Mutation 2 (antibody, mouse IgG2b, kappa, V domains shown, WT as framework) VH: EVQLQQSGPEVVKPGASVKISCKASGSTLTEYYMNWVKQSHGKGLEWIGDLNPINGGTPYQQKFRDKATLTVDKSSNTAYMELRSLTSEDSALYYCTRGAEEYWGQGTTLTVSS VL: DVVLTQTPLSLSVTIGQPASISCKSSQSIIYSNGKIYLNWFQQRPGQSPKRLMYQLSKIDPGIPDRFSGSGSETDFTLKISRVEAEDLGVYYCLQGTYSPNTFGGGTKLEIKR . Value? 2.05 OD

Recorded OD value at 450 nm (ref 630 nm) for Mutation 3 (antibody, mouse IgG2b, kappa, V domains shown, WT as framework) VH: EVQLQQSGPEVVKPGASVKISCKASGSTLTQYYMNWVKQSHGKGLEWIGDLNPINGGTVYQQKFRDKATLTVDKSSNTAYMELRSLTSEDSALYYCTRGAEMYWGQGTTLTVSS VL: DVVLTQTPLSLSVTIGQPASISCKSSQSIIYSNGKIYGNWFQQRPGQSPKRLMYQLSKFDPGIPDRFSGSGSETDFTLKISRVEAEDLGVYYCLQGTYSPMTFGGGTKLEIKR , please? 0.635 OD

Can you share its OD value at 450 nm (ref 630 nm)? I mean this binder: Mutation 1 (antibody, mouse IgG2b, kappa, V domains shown, also called Variant 1) VH: EVQLQQSGPEVVKPGASVKISCKASGSTLTDYYMNWVKQSHGKGLEWIGDLNPINGGTAYQQKFRDKATLTVDKSSNTAYMELRSLTSEDSALYYCTRGAEDYWGQGTTLTVSS VL: DVVLTQTPLSLSVTIGQPASISCKSSQSIIYSNGKIYLNWFQQRPGQSPKRLMYQLSKLDPGIPDRFSGSGSETDFTLKISRVEAEDLGVYYCLQGTYSPQTFGGGTKLEIKR 2.4 OD

# input binder: Anti-HRP-II 3R5 monoclonal antibody (recombinant, expressed in CHO cells; WT) (antibody, mouse IgG2b, kappa, V domains shown, Mouse IgG; also called Anti-HRP-H3R5; CHO transient-transfected cell supernatant) VH: EVQLQQSGPEVVKPGASVKISCKASGSTLTEYYMNWVKQSHGKGLEWIGDLNPINGGTPYQQKFRDKATLTVDKSSNTAYMELRSLTSEDSALYYCTRGAEEYWGQGTTLTVSS VL: DVVLTQTPLSLSVTIGQPASISCKSSQSIIYSNGKIYINWFQQRPGQSPKRLMYQLSKIDPGIPDRFSGSGSETDFTLKISRVEAEDLGVYYCLQGTYSPNTFGGGTKLEIKR ; wanted: its OD value at 450 nm (ref 630 nm) 1.97 OD
